System: CCRF-CEM leukemia
ASSAY_REMARKS: NCI tumour cell line growth inhibition, 48 h
Item-by-item account of TGI
# number only, unit µM dropped from output

Can you share its TGI? I mean this compound: "Nc1ccc(-c2nc3ccccc3s2)cc1C(F)(F)F" 95

Now look at this entry.
Can you share its TGI? I mean this compound: "CCCc1cc(=O)n2c(C(=O)Nc3ccc(Cl)cc3C)c(C(=O)Nc3ccc(F)cc3)sc2n1" 103

###

Test system: OVCAR-8 ovarian
ASSAY_REMARKS: NCI tumour cell line growth inhibition, 48 h; in the data active means GI50 below about 0.43 µM; inactive means the rest
In this exercise, the only acceptable responses are 1 = active, 0 = inactive

Lab log entry: "COc1ccc(-c2cnnn2-c2nonc2-n2cccc2)cc1" — outcome as called in the assay? 1

In the following, a different compound is considered.
Lab log entry: "CC(C)c1[nH]nc2c1N=C(c1ccccc1Cl)c1cc([N+](=O)[O-])ccc1N2" — outcome as called in the assay? 0

###

Tested on: HS 578T breast
ASSAY_REMARKS: NCI tumour cell line growth inhibition, 48 h
Item-by-item account of GI50

Field: example entries. Status: answers known.
Can you share its GI50? I mean this molecule: "CC(C)[C@H](O)C(=O)N[C@@H](C)C(=O)N[C@@H]1C(=O)N(C)CCc2ccccc21" > 100 µM

Can you share its GI50? I mean this molecule: "COc1ccc(-c2nn(-c3cccc(Cl)c3)cc2-c2cc(-c3ccccc3)[nH]c(=O)c2C#N)cc1" 1.41 µM

New cases:
Can you share its GI50? I mean this molecule: "N=C(N)c1ccc(-c2ccc(-c3cccs3)s2)cc1" 2.99 µM

Can you share its GI50? I mean this molecule: "Cc1cc(Nc2nc(-c3cn(-c4ccc(Cl)cc4)nn3)nc3ccccc23)n[nH]1" > 50 µM

Can you share its GI50? I mean this molecule: "COc1ccc(-c2nc(-c3cc(OC)cc(OC)c3)[nH]c2-c2ccc(OC)cc2)cc1" 8.33 µM

Can you share its GI50? I mean this molecule: "CC(C)c1[nH]nc2c1N=C(c1ccccc1Cl)c1cc([N+](=O)[O-])ccc1N2" 3.16 µM

Can you share its GI50? I mean this molecule: "COc1ccc(/C(C)=C(\c2ccc(OCCN3CCCCCC3)cc2)c2ccc(OC(=O)C3CCCCC3)cc2)cc1" 0.959 µM

Can you share its GI50? I mean this molecule: "ClCCN(CCCl)c1ccc(CNc2ccccc2)cc1" 12.4 µM

Can you share its GI50? I mean this molecule: "CCCC/C(=C\C1=C(C)C(=O)C(OC)=C(OC)C1=O)C(=O)O" > 100 µM

Can you share its GI50? I mean this molecule: "C=CC(=O)N1CN(C(=O)C=C)CN(C(=O)C=C)C1" > 100 µM

###

System: U251 CNS
ASSAY_REMARKS: NCI tumour cell line growth inhibition, 48 h
ENDPOINT_NAME: TGI (µM)
# number only, unit µM dropped from output

Can you share its TGI? I mean this compound: "Cc1cccc(C2=C/C(=C(\SS/C(C(=O)c3ccc(OCC(=O)O)c(Cl)c3Cl)=C3\C=C(c4cccc(C)c4)SS3)C(=O)c3ccc(OCC(=O)O)c(Cl)c3Cl)SS2)c1" 14.3

Can you share its TGI? I mean this compound: "C=CC(=O)N1CN(C(=O)C=C)CN(C(=O)C=C)C1" 16.5

New cases:
Can you share its TGI? I mean this compound: "CCNC(=O)/C(=C/c1ccc(OC)cc1)c1cc(OC)c(OC)c(OC)c1" 70

Can you share its TGI? I mean this compound: "CCCCCCCCCCNC(=O)CI" 3.14

Can you share its TGI? I mean this compound: "Oc1[nH]c2ccc(Br)cc2c1N=NC(=S)Nc1ccc(F)cc1" 18.5

Reference for the values: PubChem BioAssay (NCI)
